The reported numbers originate from patent US20190359693A1.

- assayed.system: HA of H7N3 A/NIBRG/60 (A/mallard/NL/12/00) (influenza A virus)
- experiment.summary: cell-based or functional assay
measurement.kind: VNA titer (nM)

binder	op	measurement
SD1046 (VHH) VHH: EVQLVESGGGLVQAGDSLRISCAASGRTLSIYSMGWFRQAPGKEREFVATIGWNSGRTFYPDSLKGRFTISRDNARNTLYLQMNNLRPEDTAVYYCAAAKGPLRLSSQADYWGQGTQVTVSS	=	26.4
SD2020 (VHH) VHH: EVQLVESGGGLVQPGGSLRLSCAAAGGAFNRQLVAWFRQAPGKKREFVATVTTSGGSSYYADSVKGRFTISRDTAKNTVALQMNSLKAEDAAVYYCAARDSFTVAPYYPPESYAYWGQGTQVTVSS	>	1000
